Record form. Attribute: TGI. Fill in for each entry.
- Tested on: UACC-257 melanoma
- TEST METHOD NOTES: NCI tumour cell line growth inhibition, 48 h

Please review the following examples before continuing.
O=C1NN(c2ccc(C(=O)O)cc2)C(=O)/C1=C\c1ccc([N+](=O)[O-])o1
> 100 µM
OC(c1nc2ccccc2s1)(C(F)(F)F)C(F)(F)F
> 100 µM
Cc1ccc(NC(=O)C(=O)C2C(=O)N(c3ccccc3)N=C2N)cc1C (configuration not stated)
> 100 µM
OC12c3ccccc3C1(N1CCOCC1)CCCCC21OCCCO1 (configuration not stated)
> 100 µM
CCc1n[nH]c(=S)n1/N=C\c1ccc(-c2ccccc2Cl)o1
> 100 µM
C/C(CC(=O)Nc1ccc(Cl)c(Cl)c1)=N/NC(=O)C[n+]1ccccc1
> 100 µM
O=C(O)CNC(=O)CO/N=C1/C(c2c(O)[nH]c3ccccc23)=Nc2ccccc21
> 100 µM
C=CCCCC1CCCNC1=O (configuration not stated)
> 100 µM
Cc1ccccc1C1CC(=O)CC(c2ccccc2C)C12C(=O)NC(=O)NC2=O (configuration not stated)
> 100 µM
Cc1ccc(CC(=O)Nc2ccc(NC(=O)/C=C/NC(=O)/C=C/c3ccc(-c4ccccc4)cc3)cc2C(=O)c2ccccc2)cc1
4.71 µM

Go through the list and state TGI for each entry.
1. CC(C)=CC1C(COC(=O)c2cc3c(cc2Cl)OCO3)C1(C)C (configuration not stated)
2. COc1cc2c(cc1OCCCOc1cc(-c3ccc(F)cc3)nc(C)n1)N=C[C@@H]1CCCN1C2=O

Out:
1: > 100 µM; 2: 43 µM

* * *

- System: HCT-15 colon
- TEST METHOD NOTES: NCI tumour cell line growth inhibition, 48 h
Classification field: Fulfilled = TGI at or over 10 µM; Not fulfilled = TGI under 10 µM.

Below, 5 compounds whose answers are already recorded.
CC(C)CNC(=O)CCc1cccc2c1oc1c(CCN)cccc12
Fulfilled
CCOC(C)C(/C=N/NC(N)=S)=NNC(N)=S (centres undefined)
Fulfilled
COC(=O)C1=C2CCC(=O)[C@@]2(C)C(OC(C)=O)C=CC1 (some centres undefined)
Fulfilled
COC1=C2CC(C)CC(OC)[C@@H](OC(=O)CCN)[C@H](C)/C=C(\C)C(OC(N)=O)C(OC)/C=C\C=C(/C)C(=O)NC(=CC1=O)C2=O (some centres undefined)
Fulfilled
COc1c(C)c(C/C=C(\C)CCCCO[Si](C(C)C)(C(C)C)C(C)C)c(OC)c2ccccc12
Fulfilled

In: API: above_or_equal(metric=TGI, cutoff=10 µM) for item COc1cc(C(=O)c2ccc3c(c2)OCO3)cc(OC)c1OC
Out: Fulfilled

In: Say whether CCOC(=O)C12CCCC1(O)N(NC(=O)c1ccccc1)C(C)=C2C(=O)OC (centres undefined) shows TGI of 10 µM or more.
Out: Fulfilled

In: In plain terms: is recorded TGI at least 10 µM for CCOC(=O)c1c(N)nn2c1cc1cccccc12 ?
Out: Fulfilled

* * *

- Test system: NCI-H460 lung
- TEST METHOD NOTES: NCI tumour cell line growth inhibition, 48 h
PROPERTY LABEL: TGI

// solved cases for TGI follow
COc1cc(O)c2c(O)c3c(c4c2c1[C@]1(C4)C(C)=CCCC1(C)C)[C@H](O)[C@@]1(O)CC(=O)C(C(N)=O)=C(O)[C@@]1(O)C3=O
0.664 µM
CCOc1ccc(N=NC2C(=O)N(C(=O)CC(=O)Nc3ccccc3OC)N=C2C)cc1 (centres undefined)
> 42.8 µM
OCC(CN1CCCCC1)(CN1CCCCC1)CN1CCCCC1
> 100 µM

Query compound follows.
Summary line: COC(=O)C1=C(O)c2cc(OC)c(OC)c(OC)c2[C@H](c2cc(OC)c(OC)c(OC)c2)C1C(=O)OC (some centres undefined) , NCI-H460 lung, reported TGI = > 100 µM
